System: Ang II induced cADPR production in murine mesangial cells (MMCs)
PROCEDURE SUMMARY: Ang II-induced intracellular cADPR concentration in MMCs
Assay type: cell-based
MEASUREMENT PARAMETERS: Mus musculus, Mesangial cell; cADPR production induced by 150 nM Ang II, 90 s, MMCs; read-out: IC50([CADPR]i, uM) (means ± SEM)

{"COMPOUND": "Oc1ccc(/C=C/c2cc(O)cc(O)c2)cc1 [Resveratrol, 3,5,4′-trihydroxy-trans-stilbene]", "IC50": "5.5 µM"}
{"COMPOUND": "Oc1cc(O)cc(/C=C/c2ccc(O)c(O)c2)c1 [Piceatannol, 3,5,3′,4′-tetrahydroxy-trans-stilbene]", "IC50": "8.9 µM"}
{"COMPOUND": "Oc1ccc(N=Nc2ccc(O)cc2)cc1 [4,4′-DHAB, 4,4′-Dihydroxyazobenzene]", "IC50": "0.0025 µM"}
{"COMPOUND": "Oc1ccccc1/N=N/c1ccccc1O [2,2′-DHAB, 2,2′-Dihydroxyazobenzene]", "IC50": "16.5 µM"}

----------
Test system: Ang II induced cADPR production in murine mesangial cells (MMCs)
PROCEDURE SUMMARY: Ang II-induced intracellular cADPR concentration in MMCs
Type: cell-based
MEASUREMENT PARAMETERS: Mus musculus, Mesangial cell, read-out: IC50([CADPR]i, uM) (means ± SEM)

{"CHEM SMILES": "c1ccc(N=Nc2ccccc2)cc1", "TGT": "Ang II induced cADPR production in murine mesangial cells (MMCs)", "IC50": "13 µM"}
